- Test Protocol: Growth inhibition of human PANC1 cells by MTT assay
- Assay type: cell-based, PANC-1
- Conditions: PANC-1 cells
Please provide measured GI50 for the entries that follow.

For orientation, consider the following solved cases.
{"Molecule": "Cc1nc(C)c(-c2nn(-c3ccc(F)cc3)cc2/C=C/C(=O)c2cc(Cl)c(C)cc2O)s1", "GI50": "> 250 µg/mL"}
{"Molecule": "Cc1ccc(O)c(C(=O)/C=C/c2cn(-c3ccc(F)cc3)nc2-c2sc(C)nc2C)c1", "GI50": "52.4 µg/mL"}
{"Molecule": "Cc1ccc2oc(-c3cn(-c4ccc(F)cc4)nc3-c3sc(C)nc3C)cc(=O)c2c1", "GI50": "> 250 µg/mL"}
{"Molecule": "Cc1nc(C)c(-c2nn(-c3ccc(F)cc3)cc2C2CC(c3c(O)cc(C)c(Cl)c3C)=NN2)s1 (centres undefined)", "GI50": "41.6 µg/mL"}
{"Molecule": "Cc1nc(C)c(-c2nn(-c3ccc(F)cc3)cc2C2CC(c3cc(Br)ccc3O)=NN2)s1 (centres undefined)", "GI50": "76.4 µg/mL"}
{"Molecule": "Cc1ccc(O)c(C2=NNC(c3cn(-c4ccc(F)cc4)nc3-c3sc(C)nc3C)C2)c1 (centres undefined)", "GI50": "> 250 µg/mL"}

Provide GI50 for all items below, preserving their order.
1. CO[C@H]1/C=C/O[C@@]2(C)Oc3c(C)c(O)c4c(O)c(c(/C=N/N5CCN(C)CC5)c(O)c4c3C2=O)NC(=O)/C(C)=C\C=C\[C@H](C)[C@H](O)[C@@H](C)[C@@H](O)[C@@H](C)[C@H](OC(C)=O)[C@@H]1C
2. Cc1nc(C)c(-c2nn(-c3ccc(F)cc3)cc2-c2cc(=O)c3cc(Cl)c(C)cc3o2)s1
3. Cc1nc(C)c(-c2nn(-c3ccc(F)cc3)cc2C2CC(c3cc(Cl)c(C)cc3O)=NN2)s1 (centres undefined)

Response line:
["> 100 µg/mL", "> 250 µg/mL", "127 µg/mL"]

Hi, could you look up GI50 for each item in my list?
1. Cc1nc(C)c(-c2nn(-c3ccc(F)cc3)cc2/C=C/C(=O)c2cc(Cl)ccc2O)s1
2. Cc1nc(C)c(-c2nn(-c3ccc(F)cc3)cc2/C=C/C(=O)c2c(O)cc(C)c(Cl)c2C)s1
3. Cc1nc(C)c(-c2nn(-c3ccc(F)cc3)cc2/C=C/C(=O)c2cc(Cl)cc(Cl)c2O)s1
4. Cc1nc(C)c(-c2nn(-c3ccc(F)cc3)cc2C2CC(c3cc(Cl)ccc3O)=NN2)s1 (centres undefined)
5. Cc1nc(C)c(-c2nn(-c3ccc(F)cc3)cc2/C=C/C(=O)c2cc(Br)ccc2O)s1

Response line:
1. > 250 µg/mL
2. 35.2 µg/mL
3. > 250 µg/mL
4. > 250 µg/mL
5. > 250 µg/mL

* * *

- Test system: A549
- Test Protocol: Growth inhibition of human A549 cells by MTT assay
- Type: cell-based
- Conditions: a549
Field: GI90. Provide a value for each of the compounds that follow.

Consider the following illustrative entries.
{"Compound": "Cc1nc(C)c(-c2nn(-c3ccc(F)cc3)cc2C2CC(c3cc(Cl)c(C)cc3O)=NN2)s1 (configuration not stated)", "Recorded Value": "> 250 µg/mL"}
{"Compound": "Cc1ccc2oc(-c3cn(-c4ccc(F)cc4)nc3-c3sc(C)nc3C)cc(=O)c2c1", "Recorded Value": "> 250 µg/mL"}
{"Compound": "Cc1ccc(O)c(C2=NNC(c3cn(-c4ccc(F)cc4)nc3-c3sc(C)nc3C)C2)c1 (configuration not stated)", "Recorded Value": "> 250 µg/mL"}
{"Compound": "Cc1nc(C)c(-c2nn(-c3ccc(F)cc3)cc2/C=C/C(=O)c2c(O)cc(C)c(Cl)c2C)s1", "Recorded Value": "84.31 µg/mL"}

Please look at the items below and tell me GI90 for each one, in order.
1. CC(=O)O[C@H]1C(=O)[C@@]2(C)[C@H]([C@H](OC(=O)c3ccccc3)[C@]3(O)C[C@H](OC(=O)[C@H](O)[C@@H](NC(=O)c4ccccc4)c4ccccc4)C(C)=C1C3(C)C)[C@]1(OC(C)=O)CO[C@@H]1C[C@@H]2O [PACLITAXEL]
2. Cc1nc(C)c(-c2nn(-c3ccc(F)cc3)cc2/C=C/C(=O)c2cc(Br)ccc2O)s1
3. Cc1nc(C)c(-c2nn(-c3ccc(F)cc3)cc2-c2cc(=O)c3cc(Cl)c(C)cc3o2)s1

Response line:
1. 0.0706 µg/mL
2. > 250 µg/mL
3. > 250 µg/mL
